# Test system: SK-OV-3 ovarian
# assay-name: NCI tumour cell line growth inhibition, 48 h
# TGI listing for each entry below
assay-metric: TGI

> print(dat)
                        structure.as.smiles  assay.metric    result
1          NC(=O)c1ccc(Cl)c([N+](=O)[O-])c1           TGI  > 100 µM
2  N#CCCN(CCC#N)c1ccc(C(N=Nc2ccccc2)=Nc2ccc(F)cc2)cc1           TGI  > 100 µM
3  O=c1c2c3c(sc2nc2n1N=C(c1ccc(Br)cc1)CS2)CCCC3           TGI  > 100 µM
4  C[As+](C)(c1ccc(Br)c([N+](=O)[O-])c1)c1ccc(Br)c([N+](=O)[O-])c1.O=[N+]([O-])O           TGI  > 100 µM
5  CCN(CC)CCCCNc1c2ccc(Cl)cc2nc2ccc(OC)cc12           TGI   3.46 µM

----------
# Tested on: NCI/ADR-RES ovarian
# assay-name: NCI tumour cell line growth inhibition, 48 h
assay-metric: GI50

> print(dat)
                        structure.as.smiles  assay.metric   result
1  CC(C)c1ccc(NC(=O)Cc2ccc(Nc3ncnc4cc(-c5cnn(CCN(C)C)c5)ccc34)cc2)cc1          GI50  > 10 µM
2   Cc1ccc(C(=O)NC2CC2)cc1-c1ccc2[nH]ncc2c1          GI50  > 25 µM
3  O=C1N=C(Nc2nc(-c3csc(NC4=NC(=O)/C(=C\c5ccccc5)S4)n3)cs2)S/C1=C/c1ccccc1          GI50  15.9 µM
4  CO/N=C(\COc1ccc2oc(-c3ccccc3)cc(=O)c2c1)c1ccc(F)cc1          GI50    21 µM

----------
# Tested on: COLO 205 colon
# assay-name: NCI tumour cell line growth inhibition, 48 h
# GI50 listing for each entry below
assay-metric: GI50

> print(dat)
                                    compound      result
 1  O=c1[nH]c(=O)n(C2CC(O)C(CO)O2)cc1C(F)(F)F (stereo not given)    25000 nM
 2  CCOC(=O)C1=C(C)NC(c2ccco2)=C(C#N)C1c1cccc([N+](=O)[O-])c1 (stereo not given)     14.9 nM
 3  CC(=O)[CH-]C(=O)c1ccccc1.CC(=O)[CH-]C(=O)c1ccccc1.[O-]c1ccc2c(c1)OCO2.[O-]c1ccc2c(c1)OCO2.[Ti+4]    32000 nM
 4  COc1cc(NCCCCCN=C(N)NC(N)=NC(C)C)c2ncccc2c1      468 nM
 5  CCn1c2ccccc2c2cc(C(=O)c3ccc(C)c4ccccc34)ccc21      249 nM
 6          CNC(=O)c1cncc(/C=C/c2ccccc2Cl)c1  > 25000 nM
 7  N#Cc1cccc(C2C3=C(COC3=O)N(CCO)c3cc4c(cc32)OCO4)c1 (stereo not given)     1580 nM
 8  COC(=O)N[C@H]1CCc2c(Cl)c(OC)c(OC)c(OC)c2-c2ccc(SC)c(=O)cc21     < 10 nM
 9  O=C(Nc1cccc(C(F)(F)F)c1)Oc1ccc(Cl)c2cccnc12     2480 nM
10  COc1cc(/C=C2\CCCC3=C2N=C2SC(C)=NN2C3c2cc(OC)c(OC)c(OC)c2)cc(OC)c1OC (stereo not given)      429 nM
11                    CC[PH+](CC)CC.[Cl][Au]     1850 nM
12  CCC[CH2][Sn]1([CH2]CCC)[S]CC[N]1S(=O)(=O)c1ccc(C)cc1     1630 nM
13  Nc1cccc2c1C(=O)c1cccc(NC(=O)c3ccccc3)c1C2=O      354 nM
14   Cc1ccc(C(=O)NC2CC2)cc1-c1ccc2[nH]ncc2c1  > 25000 nM
15  C[CH2][Sn]([CH2]C)([O]C(=O)c1ccc(F)cc1)[O]C(=O)c1ccc(F)cc1    20300 nM

----------
# TGI listing for each entry below
# Test system: A498 renal
# assay-name: NCI tumour cell line growth inhibition, 48 h
assay-metric: TGI

> print(dat)
                                   compound  assayed.system     result
1                        NCCCCNCCCN1CCOC1=O      A498 renal   > 100 µM
2  CN(C)CCNCCCNc1c2ccccc2nc2cccc([N+](=O)[O-])c12      A498 renal  0.0588 µM
3  COc1cc(NCCCCCN=C(N)NC(N)=NC(C)C)c2ncccc2c1      A498 renal    28.1 µM
4  NC(Cc1ccccc1)c1nccs1 (centres undefined)      A498 renal   > 100 µM
5                      O/N=C/c1ccc(O)c(O)c1      A498 renal   > 100 µM
6      O=c1c2cc3ccccc3n2c(=O)c2cc3ccccc3n12      A498 renal   > 100 µM
7     CCOC(=O)N1CCN(c2c(N)nc(C)[nH]c2=O)CC1      A498 renal   > 100 µM
8  COC(=O)C1CCc2nnc(-c3ccccc3)n21 (centres undefined)      A498 renal   > 100 µM
9  COc1ccc(S(=O)(=O)N(C(C)=O)c2ccccc2/C=C/c2cc[n+]([O-])cc2)cc1      A498 renal   > 2.8 µM

----------
# Test system: SK-OV-3 ovarian
# assay-name: NCI tumour cell line growth inhibition, 48 h
# TGI listing for each entry below
assay-metric: TGI

> print(dat)
                        structure.as.smiles    result
1  CC(C)(C)OC(=O)N[C@@H](Cc1ccccc1)C(=O)N(Cc1ccccc1)C1(C(=O)NCc2ccccc2)CCN(Cc2ccccc2)CC1  > 100 µM
2  O=C(Nc1nn(C(=O)c2cccnc2)c(=O)s1)c1ccc(Cl)cc1  > 100 µM
3  COc1ccc2c(c1)CCc1c-2n[nH]c1-c1[nH]nc2c1CCc1cc(OC)ccc1-2  > 100 µM
4             CN(N)c1nc(N)c(C#N)c(C#N)c1C#N   > 10 µM
5  CC(=N/NC(=S)N(C)C)/C(=N\NC(=S)N(C)C)c1ccccc1   3.53 µM

----------
# Tested on: OVCAR-8 ovarian
# assay-name: NCI tumour cell line growth inhibition, 48 h

molecule	assayed-system	TGI
COC(=O)CC[C@]12C[C@]13CC[C@]1(C)C4C(C)C[C@]5(CC(C)C(=O)O5)OC4CC1(C)C3CCC2C(C)(C)O (stereo not given in full)	OVCAR-8 ovarian	> 100 µM
O=C1NC2C(O)CCCCC2C12CCCCC2 (stereo not given)	OVCAR-8 ovarian	> 100 µM
NC(=O)c1ccc(Cl)c([N+](=O)[O-])c1	OVCAR-8 ovarian	> 100 µM
OC(CC(O)(C(F)(F)Cl)C(F)(F)Cl)c1ccccc1 (stereo not given)	OVCAR-8 ovarian	> 10 µM
O=C(c1ccc([N+](=O)[O-])cc1)N1CCCC1	OVCAR-8 ovarian	> 100 µM
O=C(O)c1ccc(SSc2ccc(C(=O)O)cn2)nc1	OVCAR-8 ovarian	> 100 µM
C[C@@H]1CC[C@@]2(NC1)O[C@H]1C[C@H]3[C@@H]4CC[C@H]5C[C@@H](O)CC[C@]5(C)[C@H]4CC[C@]3(C)[C@H]1[C@@H]2C	OVCAR-8 ovarian	54.7 µM
CC1(C)OCC(C2OC(C)(C)OC2[C@H]2O[C@@]3(O)[C@H]4[C@H](C=CC[C@@H]42)[C@@H](OCc2ccccc2)[C@H](OCc2ccccc2)[C@H]3OCc2ccccc2)O1 (stereo not given in full)	OVCAR-8 ovarian	> 100 µM
COc1ccc(S(=O)(=O)N(C(C)=O)c2ccccc2/C=C/c2cc[n+]([O-])cc2)cc1	OVCAR-8 ovarian	> 10 µM
O=C1N=C(Nc2nc(-c3csc(NC4=NC(=O)/C(=C\c5ccccc5)S4)n3)cs2)S/C1=C/c1ccccc1	OVCAR-8 ovarian	> 50 µM

----------
# System: SK-MEL-2 melanoma
# assay-name: NCI tumour cell line growth inhibition, 48 h; in the data active means GI50 below about 0.43 µM; inactive means the rest
Outcome codes: 1.0 for active, 0.0 for inactive

> print(dat)
                                   molecule  class.name
1          CNC(=O)c1cncc(/C=C/c2ccccc2Cl)c1         0.0
2  COc1ccc(S(=O)(=O)N(C(C)=O)c2ccccc2/C=C/c2cc[n+]([O-])cc2)cc1         0.0
3  CCC[CH2][Sn]1([CH2]CCC)[S]CC[N]1S(=O)(=O)c1ccc(C)cc1         0.0
4  Nc1cccc2c1C(=O)c1cccc(NC(=O)c3ccccc3)c1C2=O         1.0
5  CCOC(=O)C1=C(C)NC(c2ccco2)=C(C#N)C1c1cccc([N+](=O)[O-])c1 (stereo unspecified)         1.0
6  COc1cc2c3c(n(CCCNCCCN)c(=O)c2cc1OC)-c1cc2c(cc1C3=O)OCO2         0.0
